Please respond with reported growth for every item in the list.
System: MDA-MB-468 breast
Method summary: NCI-60 one-dose screen, 48 h (100 = growth as untreated, 0 = no growth, -100 = all killed)
Particulars: 10 µM unless noted
About 83,000 compounds went through this panel and 20% of them were active in at least one assay; those are over-represented in the sample as a whole. The source made the active and inactive calls. Rule for the calls: active = growth percent below 10; inactive = the rest.

Q: // lookup growth for "NC(=O)c1cccc(C#CCNC[C@H]2C[C@@H](n3ccc4c(Cl)ncnc43)[C@H](O)[C@@H]2O)c1"
Result: 95.9% (inactive)

Q: Any idea what its growth is? The compound is "CC1(C)CC(=O)C2=C(C1)N(Cc1ccc(C(=O)O)cc1)C1=C(C(=O)CC(C)(C)C1)C2c1ccc(Cl)cc1"
Result: 103% (inactive)

Q: growth lookup needed for "NS(=O)(=O)Oc1ccc(-c2sc3cc(O)ccc3c2C(=O)c2ccc(OCCN3CCCCC3)cc2)cc1" , thanks.
Result: 95.1% (inactive)

Q: May I ask what growth has been recorded for "NS(=O)(=O)c1ccc(CCn2c(-c3ccc(C(=O)O)cc3)nc(-c3ccccc3)c2-c2ccccc2)cc1" ?
Result: 112% (inactive)

Q: I am curious: what growth value has been reported for "CC1(COc2ccc3ncc(C#Cc4cncc(C(=O)Nc5cc(C(C)(C)C)on5)c4)n3n2)COC1" ?
Result: 85% (inactive)

Q: Which growth value is on record for "C[C@H]1[C@H](C)CC[C@]2(C(=O)N3CCN(C)CC3)CC[C@]3(C)C(=CC[C@@H]4[C@@]5(C)C/C(=C/c6cccnc6)C(=O)C(C)(C)[C@@H]5CC[C@]43C)[C@H]12" ?
Result: -83.2% (active)

Q: Given "CCc1cnn2c(NCc3ccc[n+]([O-])c3)cc(N3CCCC[C@H]3CCO)nc12" , state its recorded growth.
Result: -56.3% (active)

Q: I have this compound here, "Cc1cc(O)ccc1Sc1ccccc1[N+](=O)[O-]" , and I need its recorded growth.
Result: 95.3% (inactive)

###

System: OVCAR-8 ovarian
Method summary: NCI-60 one-dose screen, 48 h
Particulars: 10 µM
About 83,000 compounds went through this panel and 20% of them were active in at least one assay; those are over-represented in the sample as a whole. Calls of active or inactive are those of the source. The calls were made as follows: active = growth percent below 10; inactive = the rest.
Result category, one only: class 1 for active, class 0 for inactive

Q: What did the test return for "COc1ccc(NCc2cn(-c3ccc(C(=O)O)cc3)nc2-c2ccc(F)cc2)cc1C(F)(F)F" ?
Result: class 0

Q: Identify the outcome logged in this assay for the molecule shown: "Cc1ccc2c(c1)C(=O)/C(=C/c1ccc([N+](=O)[O-])cc1)S2"
Result: class 0

Q: Assay result, entry "Cn1cc(/C=C(/SS/C(=C/c2cn(C)c3cccc(C(=O)O)c23)C(=O)O)C(=O)O)c2c(C(=O)O)cccc21" — outcome?
Result: class 0

Q: Per the records of this test, what outcome belongs to COc1ccc(C2c3sc4ccc(C)cc4c3Oc3nc[nH]c(=O)c32)cc1 (stereo not given) ?
Result: class 0

Q: What did the test return for "Cn1cc(-c2cc3nc(-c4c[nH]c5ccccc45)cc(N)n3n2)c2cc(Cl)ccc21" ?
Result: class 1

###

System: MDA-MB-468 breast
Method summary: NCI-60 one-dose screen, 48 h
Particulars: 10 µM unless noted
Compounds without any hit were thinned out: in the full panel of roughly 83,000, 20% have a hit. Calls of active or inactive are those of the source. How the source made its calls: active means growth percent below 10; inactive means the rest.
Permitted responses: y for active, n for inactive

Q: Just curious, what result did "CCCCC(=O)Nc1nc2ccc(SCCC)cc2s1" get here?
Result: n

Q: # fetch the recorded call for "O=C1c2cccc(NCCN=Cc3cc([N+](=O)[O-])ccc3O)c2C(=O)c2c(NCCN=Cc3cc([N+](=O)[O-])ccc3O)cccc21" here
Result: n

Q: Would you mind telling me which call this test gave "O=S(=O)(NCCCNc1nccc(-c2c(-c3cccc(F)c3)nc3sccn23)n1)c1cccc2ccccc12" ?
Result: n

Q: Which outcome was assigned to "C=C(C)[C@@H]1CC[C@]2(C(N)=O)CC[C@]3(C)[C@H](CC[C@@H]4[C@@]5(C)CC[C@H](O)C(C)(C)[C@@H]5CC[C@]43C)[C@@H]12" in this test?
Result: y

Q: Could you please tell me the result logged for "OB(O)c1cccc(-c2nc3ccc4[nH]ncc4c3c3c2CCCC3)c1F" in this assay?
Result: n

Q: Any idea what this test logged for "CS(=O)(=O)c1ccc(-c2cnc3ccc(-c4cccc(S(C)(=O)=O)c4)nn23)cc1" ?
Result: y

Q: Which outcome was assigned to "O=[N+]([O-])c1ccc2nc3c4ccccc4c4ccccc4c3nc2c1" in this test?
Result: n

Q: Hello, I am checking results. What call was entered for "N=C(N)c1ccc(-c2ccc(-c3ccccc3)s2)cc1F" ?
Result: y

Q: Any idea what this test logged for "COc1ccc(-n2ncc3c4nc(OC)c(S(=O)(=O)c5ccccc5)cc4ccc32)cc1" ?
Result: n

Q: Query: recorded result category for "COc1ccc(-c2csc(NC(=O)CSc3nc(C)c(-c4ccccc4)n3Nc3ccccc3)n2)cc1" in this test
Result: n

Q: Please let me know the test result on file for O=C(NCc1ccccc1)C1CN(c2ccc(Cl)cc2)N(c2ccc(Cl)cc2)C1=O (configuration not stated) .
Result: n

Q: Which outcome was assigned to "COc1ccc2nc3c(n2c1)C(=O)C(=O)c1ccccc1-3" in this test?
Result: y

Q: Hi team, can someone confirm the assay call for "Cc1cccc([N+](=O)[O-])c1I" ?
Result: n

Q: // param item: "Nc1c(C(=O)NC2CCCCC2)sc2nc3c(cc12)C(=O)CCC3" ; yields the recorded call
Result: n

Q: Outcome logged for "CCN(C)S(=O)(=O)Nc1cccc(Nc2ncnc3cc(NC(=O)CCl)ccc23)c1Cl" in this assay:
Result: y

Q: Entry "O=C(O)CCNC1CCCCC1" : call = ?
Result: n

Q: Check the results log: what was the call for "CC#Cc1nc(Nc2cc(C)[nH]n2)c2ccccc2n1" ?
Result: y

Q: Just curious, what result did "O=C(Nc1ccc(F)cc1)ON=C1CCCCC1" get here?
Result: n

Q: Recorded call for "Cc1nc2c(c(N3CCCc4ccccc43)n1)CCC2" ?
Result: y

Q: Entry "Oc1ccc(Nc2ccc3ccccc3c2)cc1" : call = ?
Result: n

Q: Please let me know the test result on file for "COc1cc2c(cc1O)CCN1C[C@@H](CC(C)C)[C@@H](O)C[C@@H]21" .
Result: n

Q: // outcome(item) with item = "O=C1/C(=C/c2ccc(Cl)cc2)CN(C(=O)CCN2CCC(=NO)CC2)C/C1=C\c1ccc(Cl)cc1"
Result: y
